experiment: viability loss with induced miR-34 in A549 – imaging, A549 dox-inducible miR-34, nuclei and caspase counts, primary screen (AID 1347080); conditions: A549 miR-34 inducible, Hoechst nuclei count, 48 h; measured here: total cells with miR-34 induction; stronger effect = lower value; also: test concentration not given here
Under this convention, met denotes cell count strictly below 8000 and not met denotes cell count at or above 8000.

molecule=Cc1nn(C)c(C)c1-c1ccnc(NCCOCCO)n1 assigned_label="not met"
molecule=COc1cc(CC(=O)O)ccc1O assigned_label="not met"
molecule="Nc1nc(SCc2ccc([N+](=O)[O-])cc2)c2ncn([C@@H]3O[C@H](CO)[C@H](O)C3O)c2n1 (stereo not given in full)" assigned_label="not met"
molecule=[N-]=[N+]=Nc1ccc(C(=O)CSC[C@H](NC(=O)CC[C@H](N)C(=O)O)C(=O)NCC(=O)O)cc1 assigned_label=met
molecule=CC1(C)CCC(NC(=O)[C@@H](N)CCC(=O)O)CC1 assigned_label="not met"
molecule="CCCSc1nc(NC2CC2c2ccc(F)c(F)c2)c2nnn(C3CC(OCCO)C(O)C3O)c2n1 (stereo not given)" assigned_label=met
molecule="NC1(C(=O)NC(CCO)c2ccc(Cl)cc2)CCN(c2ncnc3[nH]ccc23)CC1 (stereo not given)" assigned_label=met
molecule="C=C1CC[C@H]2[C@@](C)(CCC(O)[C@@]2(C)CO)C1CC=C1C(=O)OCC1O (stereo not given in full)" assigned_label=met
molecule=Cc1ccccc1/C=C/C1=NCCN1 assigned_label=met
molecule="CC(O)c1cn(C2CCN(c3ncnc4nc[nH]c34)CC2)nn1 (stereo not given)" assigned_label="not met"

Could you please tell me whether cell count recorded for "CCCCCC(=O)/C=C/C=C\C/C=C\C/C=C\CCCC(=O)O" is less than 8000?
met

Could you please tell me whether cell count recorded for "O=C(Nc1n[nH]c(Cc2ccccc2)n1)N1CCN(c2ncccn2)CC1" is less than 8000?
not met

Could you please tell me whether cell count recorded for C=C1C(=O)[C@@]23C(O)[C@H]1CCC2[C@]12CO[C@]3(O)C(O)[C@@H]1C(C)(C)CCC2O (stereo not given in full) is less than 8000?
not met

Could you please tell me whether cell count recorded for "COc1cc(CCC(C)=O)ccc1O" is less than 8000?
met

Could you please tell me whether cell count recorded for CN(C)c1ccc(O)c2c1CC1CC3[C@@H](N(C)C)C(=O)C(C(N)=O)=C(O)[C@]3(O)C(=O)C1=C2O (stereo not given in full) is less than 8000?
met

Could you please tell me whether cell count recorded for O=C(Nc1ncc(SCCN2CCCC2)s1)[C@]1(c2ccc(S(=O)(=O)C3CC3)cc2)CC1C1CCCCC1 (stereo not given in full) is less than 8000?
met

----------
experiment: viability loss with induced miR-34 in A549 – imaging, A549 dox-inducible miR-34, nuclei and caspase counts, primary screen (AID 1347080); conditions: A549 miR-34 inducible, Hoechst nuclei count, 48 h; measured here: total cells with miR-34 induction; stronger effect = lower value; also: test concentration not given here
Measurement kind: cell count
Keep it simple and answer with nothing but the number.

compound="COc1ccc2c(c1)CCC1C2CC[C@@]2(C)C1CC[C@@H]2NCCCCCCN1C(=O)CCC1=O (some centres undefined)" measurement_kind="cell count" data_value=8060
compound=Cc1ncc(-c2cc(C(=O)N(C)Cc3csc(C)n3)c3ccc(F)cc3n2)cn1 measurement_kind="cell count" data_value=8360
compound=CC(C)n1cc(-c2cc(C(=O)N(C)Cc3cccnc3)c3ccc(F)cc3n2)cn1 measurement_kind="cell count" data_value=9850
compound=O=C1NC(=O)C(=Cc2cccc(C(F)(F)F)c2)S1 measurement_kind="cell count" data_value=7740
compound="CC1(C)S[C@@H]2[C@H](NC(=O)COc3ccccc3)C(=O)N2C1C(=O)O (some centres undefined) (tested in a mixture with another compound)" measurement_kind="cell count" data_value=9020
compound=O=C(c1cccc(Cl)c1F)N1CCN(Cc2cccc(Nc3nccs3)n2)CC1 measurement_kind="cell count" data_value=2250

Next item in the queue.
For record COC(=O)C1C(OC)C(OC(=O)c2cc(OC)c(OC)c(OC)c2)C[C@@H]2CN3CCc4c([nH]c5cc(OC)ccc45)[C@H]3C[C@H]12 (some centres undefined) the listed cell count is 7190
